B1: TRIM39 (parent)
chain: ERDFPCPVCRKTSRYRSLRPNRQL

Variants of: B1
assay.details: protein stability index of a GFP-peptide fusion (GPS, HEK-293T) (PSI 1-6); higher = more stable;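 further: lentivirally expressed fusions sorted by FACS into six bins by GFP to DsRed ratio, PSI derived from sequencing read proportions per bin multiplied by bin number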
measurement.setup: c terminus: a fixed tail appended
List of protein stability index values.
assay.endpoint: protein stability index

item_sequence="ERIFPCPVCRKTSRYRSLRPNRQL [D3I]" recorded_value=1.39
item_sequence="ERDFFCPVCRKTSRYRSLRPNRQL [P5F]" recorded_value=1.81
item_sequence="ERDFPCPVCRATSRYRSLRPNRQL [K11A]" recorded_value=2.45
item_sequence="ERDKPCPVCRKTSRYRSLRPNRQL [F4K]" recorded_value=2.86
item_sequence="ERDFPCPVCRKTSRYRSLRPFRQL [N21F]" recorded_value=2.6
item_sequence="ERDFPCPVCRKTSRYSSLRPNRQL [R16S]" recorded_value=2.86
item_sequence="ERDMPCPVCRKTSRYRSLRPNRQL [F4M]" recorded_value=2.48
item_sequence="EDDFPCPVCRKTSRYRSLRPNRQL [R2D]" recorded_value=2.1
item_sequence="ERDFPCPVCRKTSRYRSLRPNRRL [Q23R]" recorded_value=1.71
item_sequence="ERDFPCPVCRKTSRYRSLDPNRQL [R19D]" recorded_value=1.54
item_sequence="ERDFPCPVCRCTSRYRSLRPNRQL [K11C]" recorded_value=2.55
item_sequence="ERYFPCPVCRKTSRYRSLRPNRQL [D3Y]" recorded_value=1.42
item_sequence="ERDPPCPVCRKTSRYRSLRPNRQL [F4P]" recorded_value=2.41
item_sequence="ERDFPCPVCRKTSRYRSLRPNRQG [L24G]" recorded_value=2.06
item_sequence="ERDFPFPVCRKTSRYRSLRPNRQL [C6F]" recorded_value=2.03
item_sequence="ERDFPCPVCRKTPRYRSLRPNRQL [S13P]" recorded_value=2.74
item_sequence="ERDFPCPVCRKVSRYRSLRPNRQL [T12V]" recorded_value=2.02
item_sequence="ERDFPCPVCRKTSRIRSLRPNRQL [Y15I]" recorded_value=2.24
item_sequence="ERDYPCPVCRKTSRYRSLRPNRQL [F4Y]" recorded_value=2.84
item_sequence="WRDFPCPVCRKTSRYRSLRPNRQL [E1W]" recorded_value=2.4
item_sequence="ERDFPCPVCRKTRRYRSLRPNRQL [S13R]" recorded_value=2.49
item_sequence="ERDFPCPICRKTSRYRSLRPNRQL [V8I]" recorded_value=2.38

The measured values listed here are drawn from the supplement of paper PMC10567573.
